# tested.on: Amα1/Amα8/Amβ1 nAChR (Apis mellifera, UniProt A0A7M7MMZ9+A0A8U0WQ70+A0A8U0WQC0)
# Sequence (A0A7M7MMZ9 44-627): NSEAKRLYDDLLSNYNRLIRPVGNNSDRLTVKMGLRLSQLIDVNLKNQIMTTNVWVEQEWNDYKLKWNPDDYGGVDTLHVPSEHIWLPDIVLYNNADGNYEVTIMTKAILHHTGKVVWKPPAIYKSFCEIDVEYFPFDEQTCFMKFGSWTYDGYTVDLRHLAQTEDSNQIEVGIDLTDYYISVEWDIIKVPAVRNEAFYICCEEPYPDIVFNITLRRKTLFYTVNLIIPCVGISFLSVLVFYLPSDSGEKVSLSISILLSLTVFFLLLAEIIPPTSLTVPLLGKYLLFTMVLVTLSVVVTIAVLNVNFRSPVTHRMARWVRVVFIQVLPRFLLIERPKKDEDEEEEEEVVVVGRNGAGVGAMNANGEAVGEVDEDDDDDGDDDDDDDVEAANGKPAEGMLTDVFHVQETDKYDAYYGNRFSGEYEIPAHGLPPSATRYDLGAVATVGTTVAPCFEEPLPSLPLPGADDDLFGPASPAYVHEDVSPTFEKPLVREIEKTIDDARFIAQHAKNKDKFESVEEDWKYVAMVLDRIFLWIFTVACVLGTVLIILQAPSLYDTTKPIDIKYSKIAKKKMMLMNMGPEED
# Sequence (A0A8U0WQ70 25-537): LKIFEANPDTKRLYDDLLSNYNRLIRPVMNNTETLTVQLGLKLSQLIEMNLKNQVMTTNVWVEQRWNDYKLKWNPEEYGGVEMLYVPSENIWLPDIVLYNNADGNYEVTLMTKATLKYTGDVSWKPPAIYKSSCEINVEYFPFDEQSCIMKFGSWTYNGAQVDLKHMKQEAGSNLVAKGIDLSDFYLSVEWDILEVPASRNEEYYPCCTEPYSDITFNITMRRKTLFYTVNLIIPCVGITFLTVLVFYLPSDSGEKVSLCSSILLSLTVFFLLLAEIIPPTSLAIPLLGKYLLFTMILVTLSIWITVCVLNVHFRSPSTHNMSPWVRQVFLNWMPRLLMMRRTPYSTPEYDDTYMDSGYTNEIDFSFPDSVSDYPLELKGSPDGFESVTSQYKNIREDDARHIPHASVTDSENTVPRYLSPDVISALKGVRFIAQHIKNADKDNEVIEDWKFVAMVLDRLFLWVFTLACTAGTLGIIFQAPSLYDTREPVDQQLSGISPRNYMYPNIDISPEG
# Sequence (A0A8U0WQC0 25-520): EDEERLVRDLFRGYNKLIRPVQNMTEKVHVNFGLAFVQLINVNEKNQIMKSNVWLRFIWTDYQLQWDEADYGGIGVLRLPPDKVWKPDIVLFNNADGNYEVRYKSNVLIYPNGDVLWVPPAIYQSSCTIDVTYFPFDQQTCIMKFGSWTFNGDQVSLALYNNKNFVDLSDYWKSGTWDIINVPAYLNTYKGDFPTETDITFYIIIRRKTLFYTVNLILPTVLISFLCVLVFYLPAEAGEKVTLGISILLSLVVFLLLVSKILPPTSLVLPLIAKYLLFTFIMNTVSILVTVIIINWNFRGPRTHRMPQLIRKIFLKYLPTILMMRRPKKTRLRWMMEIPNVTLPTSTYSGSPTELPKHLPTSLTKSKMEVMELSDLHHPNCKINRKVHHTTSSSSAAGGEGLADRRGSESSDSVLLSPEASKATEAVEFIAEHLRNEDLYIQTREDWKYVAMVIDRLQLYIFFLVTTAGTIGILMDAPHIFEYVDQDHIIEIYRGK
# protocol: cell-based
# Design: species or system Xenopus laevis oocytes
measurement.type: pEC50
Answers are plain numbers, as −log10 of the molar value.

Incoming: Fill in: pEC50 of CC(=O)OCC[N+](C)(C)C is ___
Outgoing: 5.94

###

# tested.on: Dα1/Dβ1 nAChR (Drosophila melanogaster, UniProt P04755+P09478)
# Sequence (P09478 22-567): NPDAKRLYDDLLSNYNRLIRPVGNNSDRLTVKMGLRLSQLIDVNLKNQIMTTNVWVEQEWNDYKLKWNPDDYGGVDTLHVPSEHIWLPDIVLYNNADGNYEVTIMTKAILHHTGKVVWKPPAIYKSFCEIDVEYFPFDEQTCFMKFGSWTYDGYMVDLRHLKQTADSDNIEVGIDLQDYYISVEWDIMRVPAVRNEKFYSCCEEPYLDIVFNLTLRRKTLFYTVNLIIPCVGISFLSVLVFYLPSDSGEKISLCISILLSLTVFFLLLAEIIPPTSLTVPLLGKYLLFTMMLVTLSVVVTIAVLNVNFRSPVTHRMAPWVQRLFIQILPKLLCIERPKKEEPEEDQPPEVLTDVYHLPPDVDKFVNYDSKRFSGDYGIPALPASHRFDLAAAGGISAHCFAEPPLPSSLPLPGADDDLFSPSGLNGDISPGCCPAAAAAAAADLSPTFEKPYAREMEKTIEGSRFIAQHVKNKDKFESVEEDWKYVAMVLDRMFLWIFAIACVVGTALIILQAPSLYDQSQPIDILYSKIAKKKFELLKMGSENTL
# Sequence (P04755 25-521): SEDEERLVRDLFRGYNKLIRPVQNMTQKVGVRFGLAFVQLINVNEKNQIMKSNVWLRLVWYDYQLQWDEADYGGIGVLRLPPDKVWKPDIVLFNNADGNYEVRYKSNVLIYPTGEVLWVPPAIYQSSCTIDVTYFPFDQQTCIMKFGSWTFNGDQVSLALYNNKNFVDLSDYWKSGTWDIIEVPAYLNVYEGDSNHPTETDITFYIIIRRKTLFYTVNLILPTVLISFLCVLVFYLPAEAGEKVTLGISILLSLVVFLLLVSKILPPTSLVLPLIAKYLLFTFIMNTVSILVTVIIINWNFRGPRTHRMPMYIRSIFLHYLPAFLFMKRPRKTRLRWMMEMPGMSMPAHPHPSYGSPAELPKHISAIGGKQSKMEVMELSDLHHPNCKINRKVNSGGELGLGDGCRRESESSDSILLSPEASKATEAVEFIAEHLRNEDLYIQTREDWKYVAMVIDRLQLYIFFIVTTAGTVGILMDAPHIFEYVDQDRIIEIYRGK
# protocol: two-electrode voltage clamp of Xenopus oocytes, agonist concentration-response
# Type: cell-based
I'd appreciate it if you could supply EC50 values for the items below.
Answers are plain numbers, in nM.

In [3]: df
Out[3]:
                     substance_smiles  measured_number
0  CN/C(=N\[N+](=O)[O-])NCc1cnc(Cl)s1             61.7

Query compound follows.
Incoming: Given the compound N#C/N=C1\SCCN1Cc1ccc(Cl)nc1 , what is its reported EC50?
Outgoing: 22.9

###

# tested.on: Amα1/Amα2/Amα8/Amβ1 nAChR (Apis mellifera, UniProt A0A7M7MMZ9+A0A8U0WQ70+A0A8U0WQC0+A0A8U0WQD1)
# Sequence (A0A7M7MMZ9 44-627): as the sequence (A0A7M7MMZ9 44-627) above
# Sequence (A0A8U0WQD1 18-541): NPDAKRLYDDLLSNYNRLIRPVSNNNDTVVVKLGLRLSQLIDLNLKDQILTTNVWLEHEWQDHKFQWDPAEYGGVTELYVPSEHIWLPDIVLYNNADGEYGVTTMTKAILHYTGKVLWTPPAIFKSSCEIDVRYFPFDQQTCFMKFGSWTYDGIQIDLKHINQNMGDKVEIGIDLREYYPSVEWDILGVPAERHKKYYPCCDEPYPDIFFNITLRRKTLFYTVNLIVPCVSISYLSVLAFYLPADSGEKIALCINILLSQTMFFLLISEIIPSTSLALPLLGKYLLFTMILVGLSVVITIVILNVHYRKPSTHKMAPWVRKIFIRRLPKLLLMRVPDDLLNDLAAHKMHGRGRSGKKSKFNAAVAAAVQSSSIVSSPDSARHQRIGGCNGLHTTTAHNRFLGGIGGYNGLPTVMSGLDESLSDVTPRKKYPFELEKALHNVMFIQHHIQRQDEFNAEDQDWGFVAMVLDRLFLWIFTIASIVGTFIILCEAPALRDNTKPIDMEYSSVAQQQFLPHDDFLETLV
# Sequence (A0A8U0WQ70 25-537): as the sequence (A0A8U0WQ70 25-537) above
# Sequence (A0A8U0WQC0 25-520): as the sequence (A0A8U0WQC0 25-520) above
# protocol: cell-based
# Design: species or system Xenopus laevis oocytes
measurement.type: EC50 (µM)
Numbers only, in µM.

Incoming: What value of EC50 has been recorded for this entry: CC(=O)OCC[N+](C)(C)C
Outgoing: 1.91
